Reference for the values: ChEMBL document CHEMBL1201862

Tested on: DMS-273
Assay: NCI tumour cell line growth inhibition, 48 h
Calls of active or inactive are those of the source. No stated cut-off is given here; in the data, active = GI50 up to about 1.1 µM and inactive = higher.
Outcomes: Yes = active, No = inactive

In [3]: df
Out[3]:
                                   compound  measurement_target  category_label
0  C=CC1=CC(C)C[C@]1(O)C(=O)OC (stereo partly drawn)             DMS-273             Yes
1    CC1=C(C)C(=O)c2c(cc3ccc4ccccc4n23)C1=O             DMS-273              No
2                  Oc1cccnc1/C=N/OCc1ccccc1             DMS-273              No

###

Test system: SK-MEL-2
Experiment: NCI tumour cell line growth inhibition, 48 h
Activity calls are given as the source filed them. No stated cut-off is given here; in the data, active = GI50 up to about 1.1 µM and inactive = higher.
Labels: active, inactive

compound	category-label
Nc1ncnc2c1ncn2[C@@H]1O[C@H](COP(=O)(O)OP(=O)(O)OC[C@H]2O[C@@H](OCCCO)[C@H](O)[C@@H]2O)[C@@H](O)[C@H]1O	inactive
CN/N=C(\C)CC(=O)Nc1cccc(Cl)c1C	inactive
CCOC(=O)CNC(=O)C(CSC(=O)N(O)c1ccc(Br)cc1)NC(=O)CCC(N)C(=O)OCC (centres undefined)	inactive
C=CC(c1ccccc1)[C@@]1(OC(C)=O)C(=O)C(=O)OC1C1COC(C)(C)O1 (some centres undefined)	inactive
Cc1ccc(C2NC(=O)c3ccccc3N2)c(C)c1 (centres undefined)	inactive
CC(C(=O)c1ccccc1)C1(O)C(=O)Nc2ccc(Cl)cc21 (centres undefined)	inactive
CC(C)NC(=O)O/N=C1\CCC2[C@@H]3CC=C4C[C@@H](OC(=O)NC(C)C)CC[C@]4(C)C3CC[C@]12C (some centres undefined)	inactive
CN(C)c1ccc(/C=N/c2ccc(-c3nc4ccccc4s3)cc2)cc1	inactive
O=C(c1ccc(/N=C/c2ccccc2O)cc1)c1ccc(/N=C/c2ccccc2O)cc1	inactive
CCOC(=O)N1C(=O)C2C3C=CC(C2C1=O)C1C2C(=O)N(C(=O)OCC)C(=O)C2C31 (centres undefined)	inactive
CC[C@@]1(O)C[C@H](OC2CC(N(C)C)C(OC3CC(O)C(OC4CCC(=O)C(C)O4)C(C)O3)C(C)O2)c2c(cc3c(c2O)C(=O)c2c(O)ccc(O)c2C3=O)[C@H]1C(=O)OC (some centres undefined)	active
O=C1OC(C(O)C(O)C(O)CO)C(O)C1O (centres undefined)	inactive
N#CC1(C#N)NC(c2cccnc2)C(C#N)(C#N)NC1c1cccnc1 (centres undefined)	inactive
CCOC(=O)NC(=O)c1cn(CCCO)c(=O)[nH]c1=O	inactive
CCCNc1[nH]c(C(=O)c2ccccc2)c(N)c1C(=S)Nc1ccccc1	inactive
O=C1c2ccccc2-c2nc3ccncc3n21	inactive
O=[N+]([O-])C(=C/c1ccccc1)/C(=C\c1ccccc1)[N+](=O)[O-]	inactive
CCC1(CN(C)C)CC/C(=C\c2ccc(OC)c(OC)c2)C1=O (centres undefined)	inactive
Cc1cc2cc3cc(C)c(N)cc3nc2cc1N	inactive
Cc1cc2nc3c(C#N)c(-c4ccccc4)cc(Nc4ccc(Cl)cc4)n3c2cc1C	inactive
O=C1NC2(CCCCC2)C2=C1CCCCC2	inactive
CCOC(=O)CCn1cnc(N)n1	inactive
CCCCN(CCCC)CCCn1cnc2ncccc2c1=O	inactive
N#CC(C#N)=Cc1cccc(Oc2ccccc2)c1	inactive
